Assay: MTT viability assay, ciPTEC-OAT1
Assay type: cell-based, human
Details: human, ciPTEC-OAT1 cells (monolayers, 96-well)
IC50 at 48 h overview
I only need the number, in µM, no unit after it.

Nc1ncnc2c1ncn2CCOCP(=O)(O)O	303
Nc1ccn(C[C@@H](CO)OCP(=O)(O)O)c(=O)n1	130

Pending compound:
The value of IC50 at 48 h measured for the compound C[C@H](Cn1cnc2c(N)ncnc21)OCP(=O)(O)O turned out to be 189

* * *

Biological target: OAT3 (Homo sapiens, UniProt Q8TCC7)
Sequence (Q8TCC7 whole entry): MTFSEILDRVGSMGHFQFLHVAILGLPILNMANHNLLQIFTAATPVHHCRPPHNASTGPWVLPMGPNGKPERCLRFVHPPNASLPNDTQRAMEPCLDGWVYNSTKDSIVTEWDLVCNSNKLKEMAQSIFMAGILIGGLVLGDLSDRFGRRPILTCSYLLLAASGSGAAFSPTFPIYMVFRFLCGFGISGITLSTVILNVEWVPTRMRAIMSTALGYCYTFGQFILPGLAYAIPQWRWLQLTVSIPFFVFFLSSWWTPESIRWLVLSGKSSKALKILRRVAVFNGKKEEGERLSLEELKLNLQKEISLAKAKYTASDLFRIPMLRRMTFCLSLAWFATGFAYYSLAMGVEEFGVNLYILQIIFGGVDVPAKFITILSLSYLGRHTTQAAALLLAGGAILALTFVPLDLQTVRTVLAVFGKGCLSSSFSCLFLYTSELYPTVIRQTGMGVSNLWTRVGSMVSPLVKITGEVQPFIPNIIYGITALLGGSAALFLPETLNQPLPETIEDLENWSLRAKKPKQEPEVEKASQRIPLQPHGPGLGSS
Experiment: Inhibition of OAT-mediated fluorescein uptake in ciPTEC-OAT3
Conditions: read-out: IC50 of fluorescein uptake; ciPTEC-OAT3, fluorescein 1 μM, 10 min, HBSS 37°C, mean ± SEM, n = 4; cimetidine: apparent IC50 due to partial inhibition
Structures can show the parent of a compound that is named as a salt.
measurement name: IC50 (nM)
I only need the number, in nM, no unit after it.

The value of IC50 measured for the molecule C[C@]12CC[C@@H]3c4ccc(OS(=O)(=O)O)cc4CC[C@H]3[C@@H]1CCC2=O [Estrone sulfate, estrone sulfate] turned out to be 2100
